TESTED TARGET: T1, CXCL12 (CXC Ligand 12) (UniProt O62657 22-89)
T1 construct: mature; Untagged in BLI and NMR; CXCL12-His6 was used at 1 µM on the HMGB1 SPOT peptide arrays; also called CXCL12A-c021, wt 1-67, no tag; CXCL12-His6
T1 sequence (P48061 22-89): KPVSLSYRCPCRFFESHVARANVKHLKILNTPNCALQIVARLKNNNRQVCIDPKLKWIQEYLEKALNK
PROTOCOL TEXT: BLI, biotinylated HMGB1 construct on streptavidin sensor, CXCL12 0-150 µM in solution; kinetics rates derived from interferogram
For each record, write down the corresponding koff.
Quick reminder: number only, in s⁻¹, skip the unit.

(Q) Please report the recorded koff for non-oxidizable 3S-HMGB1, full-length (1-214) (ligand, Biotinylated (c022) in BLI with CXCL12, His6-tagged in the reverse peptide array; also called 3S-FL HMGB1 (c022)) GKGDPKKPRGKMSSYAFFVQTSREEHKKKHPDASVNFSEFSKKSSERWKTMSAKEKGKFEDMAKADKARYEREMKTYIPPKGETKKKFKDPNAPKRPPSAFFLFSSEYRPKIKGEHPGLSIGDVAKKLGEMWNNTAADDKQPYEKKAAKLKEKYEKDIAAYRAKGKPDAAKKGVVKAEKSKKKKEEEEDEEDEEDEEEEEDEEDEDEEEDDDDE .
(A) 0.145

(Q) Same question, FR-HMGB1 Box A 1-88 (full HMG Box with flanking regions) (ligand, biotinylated in BLI, also called extended box A 1-88; c037; not shown: biotinylation tag) GKGDPKKPRGKMSSYAFFVQTCREEHKKKHPDASVNFSEFSKKCSERWKTMSAKEKGKFEDMAKADKARYEREMKTYIPPKGETKKKF this time
(A) 0.079

(Q) Same question, FR-HMGB1 Box A 8-78 (helical-only) (ligand, biotinylated in BLI, also called minimal Box A 8-78; c027; not shown: biotinylation tag (BLI) or His6 tag (reverse peptide array)) PRGKMSSYAFFVQTCREEHKKKHPDASVNFSEFSKKCSERWKTMSAKEKGKFEDMAKADKARYEREMKTYI this time
(A) 0.312

(Q) Same question, FR-HMGB1 Box B 94-162 (helical-only) (ligand, also: biotin or His6 tag in some assays, sequence not given here, also called HMGB1A-c028; not shown: C-terminal Avi / biotinylation tag (BLI, NMR) or His6 tag (reverse peptide array)) PKRPPSAFFLFCSEYRPKIKGEHPGLSIGDVAKKLGEMWNNTAADDKQPYEKKAAKLKEKYEKDIAAYR this time
(A) 0.64

(Q) Same question, fully-reduced HMGB1, full-length (1-214) (ligand, cysteines reduced (Cys 22, Cys 44, Cys 105), Tags differ by assay: biotinylated (c011) in BLI with CXCL12, His6-tagged in the reverse peptide array, TEV-cleaved in the RAGE ELISA and BLI; also called FR-HMGB1; FR FL-HMGB1 (c011)) GKGDPKKPRGKMSSYAFFVQTCREEHKKKHPDASVNFSEFSKKCSERWKTMSAKEKGKFEDMAKADKARYEREMKTYIPPKGETKKKFKDPNAPKRPPSAFFLFCSEYRPKIKGEHPGLSIGDVAKKLGEMWNNTAADDKQPYEKKAAKLKEKYEKDIAAYRAKGKPDAAKKGVVKAEKSKKKKEEEEDEEDEEDEEEEEDEEDEDEEEDDDDE this time
(A) 0.181
